Reported EC50 values for a set of compounds
- Tested on: NCI-H1299
- ASSAY TEXT: Inhibition of camptothecin induced mitotic arrest in human NCI-H1299 cells after 18 hrs
- Assay type: functional, cell-based
- DETAILS: NCI-H1299, 18 h
State the answer as a number, implicitly in nM.

So, NCCCc1cc2c(Br)c[nH]c(=O)c2c2cc(-c3cn[nH]c3)ccc12 ? Its EC50 was 140

The measured EC50 associated with NCCCc1cc2cc[nH]c(=O)c2c2cc(-c3cn[nH]c3)ccc12 reads 64

Value of EC50 reported for the compound NCCCc1cc2c(-c3ccccc3Cl)c[nH]c(=O)c2c2cc(-c3cn[nH]c3)ccc12 is 130

Record NCCCc1cc2c(-c3cccc(Cl)c3)c[nH]c(=O)c2c2cc(-c3cn[nH]c3)ccc12 . Reported EC50: 1050

// NCCCc1cc2c(-c3ccc(Cl)cc3)c[nH]c(=O)c2c2cc(-c3cn[nH]c3)ccc12 : EC50 value = 320

Form field EC50, entry Cn1cc(-c2ccc3c(CCCN)cc4cc[nH]c(=O)c4c3c2)cn1 : 957

Query NCCCc1cc2c(-c3cccc(O)c3)c[nH]c(=O)c2c2cc(-c3cn[nH]c3)ccc12 yields EC50 of 67
